Target: T1, 4H3057-bA
T1 chain: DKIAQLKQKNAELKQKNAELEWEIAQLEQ
Assay: two-hybrid library CCNG1;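 note: natural log of median RNA to DNA barcode read ratio; higher means stronger binding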
For each record, write down the corresponding interaction score.
Answers are plain numbers.

Would you please look over these solved cases?
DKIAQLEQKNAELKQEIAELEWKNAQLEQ [4H2503-bA]: -0.42
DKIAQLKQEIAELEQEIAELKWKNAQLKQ [4H2576-bA]: 1.74
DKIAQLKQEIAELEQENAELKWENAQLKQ [4H2588-bA]: -0.114
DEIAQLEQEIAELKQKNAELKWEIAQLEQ [4H121-bA]: 0.0584
DKIAQLKQKIAELEQENAELEWKNAQLEQ [4H2839-bA]: -0.0141
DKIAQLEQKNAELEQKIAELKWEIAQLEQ [4H2473-bA]: 0.511
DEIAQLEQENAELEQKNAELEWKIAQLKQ [4H182-bA]: 2.13
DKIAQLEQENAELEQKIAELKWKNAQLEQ [4H2223-bA]: 0.223
DKIAQLKQKIAELKQKIAELEWENAQLEQ [4H2915-bA]: -0.856
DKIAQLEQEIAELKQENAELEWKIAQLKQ [4H2134-bA]: 2.33

Record interaction score per entry; entries follow.
1. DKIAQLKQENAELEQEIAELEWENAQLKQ [4H2692-bA]
2. DKIAQLKQENAELEQENAELKWKIAQLEQ [4H2717-bA]
3. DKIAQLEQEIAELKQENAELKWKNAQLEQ [4H2143-bA]

Result block:
-0.734
1.23
-0.0999

Record interaction score per entry; entries follow.
1. DKIAQLKQKNAELKQKNAELEWEIAQLEQ [4H3057-bA]
2. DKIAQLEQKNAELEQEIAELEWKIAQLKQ [4H2438-bA]

Result block:
1: -0.859; 2: 2.39
